Let's look at some molecules and their measured % recovery (MDCK-MDR1 permeability assay).
Tested on: MDR1-transfected MDCK cell monolayers
Test: in vitro
Settings: dog, MDCK-MDR1, 2 h, 5 μM, pH 7.4
Answer in %, number only, no unit symbol.

Molecule	Endpoint value
CSCCCNCC(O)c1cc(C(F)(F)F)nc2c(C(F)(F)F)cccc12 (centres unmarked)	54
CC(C)NCC(O)c1cc(C(F)(F)F)nc2c(C(F)(F)F)cccc12 (centres unmarked)	69

Let's switch to this molecule now.
Report % recovery (MDCK-MDR1 permeability assay) for OC(CNCC12CCC(C1)NC2)c1cc(C(F)(F)F)nc2c(C(F)(F)F)cccc12 (centres unmarked) please. 52

* * *

Test: in vitro
Details: mouse
Let's look at some molecules and their measured log10 of CC50.
# values: log10(CC50), units µg/mL

Molecule	log10 of CC50
OC(c1cc(C(F)(F)F)nc2c(C(F)(F)F)cccc12)C1CCCCN1 (stereo not drawn) [Mefloquine, mefloquine, reference compound]	0.57
OC(CNCC1CCCN1)c1cc(C(F)(F)F)nc2c(C(F)(F)F)cccc12 (stereo not drawn)	1.31
CCCCNCCNCC(O)c1cc(C(F)(F)F)nc2c(C(F)(F)F)cccc12 (stereo not drawn)	1.45
CCCCNCC(O)c1cc(C(F)(F)F)nc2c(C(F)(F)F)cccc12 (racemic)	0.44
OC(CNCCNCc1ccccc1)c1cc(C(F)(F)F)nc2c(C(F)(F)F)cccc12 (stereo not drawn)	0.92

Let's switch to this molecule now.
Report log10 of CC50 for OC(CNCC12CCC(C1)NC2)c1cc(C(F)(F)F)nc2c(C(F)(F)F)cccc12 (stereo not drawn) please. 0.61

* * *

Biological target: CYP450 3A4 (Homo sapiens, UniProt P08684)
Sequence (P08684 whole entry): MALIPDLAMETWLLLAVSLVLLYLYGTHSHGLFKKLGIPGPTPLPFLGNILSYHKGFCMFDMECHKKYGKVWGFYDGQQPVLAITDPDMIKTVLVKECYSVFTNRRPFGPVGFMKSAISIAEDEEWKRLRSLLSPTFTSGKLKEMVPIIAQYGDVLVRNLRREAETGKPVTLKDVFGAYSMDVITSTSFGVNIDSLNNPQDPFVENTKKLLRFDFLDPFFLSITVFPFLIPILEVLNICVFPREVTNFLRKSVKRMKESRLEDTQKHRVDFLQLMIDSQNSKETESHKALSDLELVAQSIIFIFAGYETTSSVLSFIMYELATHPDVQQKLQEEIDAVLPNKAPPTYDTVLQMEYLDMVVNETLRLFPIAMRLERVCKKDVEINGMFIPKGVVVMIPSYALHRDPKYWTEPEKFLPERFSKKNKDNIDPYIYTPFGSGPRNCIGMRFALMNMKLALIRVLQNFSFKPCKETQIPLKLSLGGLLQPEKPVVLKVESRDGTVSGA
Experiment: CYP450 inhibition kit (drug-drug interaction), 3A4
Recorded endpoint: pIC50
Note on pIC50: it is the negative log10 of concentration, concentration in mol/L.

Molecule	Study system	pIC50
OC(CNC1CCC1)c1cc(C(F)(F)F)nc2c(C(F)(F)F)cccc12 (centres unmarked)	CYP450 3A4 (Homo sapiens, UniProt P08684)	5.24

Report pIC50 for CSCCCNCC(O)c1cc(C(F)(F)F)nc2c(C(F)(F)F)cccc12 (centres unmarked) please. 4.80

* * *

Test: metabolic stability in mouse liver microsomes
Type: in vitro ADME
Conditions: mouse, microsomes, pH 7.4
Recorded endpoint: half-life at 1 μM

Report half-life at 1 μM for OC(c1cc(C(F)(F)F)nc2c(C(F)(F)F)cccc12)C1CCCCN1 (stereo not shown) [Mefloquine, mefloquine, reference compound] please. > 1 h

* * *

System: rodent macrophage (RAW) cell line
Assay: cells
Settings: Mus musculus, Macrophage, read-out: Macrophage IC50
Recorded endpoint: pIC50
Note on pIC50: it is the negative log10 of concentration, concentration in mol/L.

Worked cases, pIC50 given:
Compound	Study system	Endpoint value
CCC(C)CNCC(O)c1cc(C(F)(F)F)nc2c(C(F)(F)F)cccc12 (centres unmarked)	rodent macrophage (RAW) cell line	4.68
OC(CNc1nc2ccccc2[nH]1)c1cc(C(F)(F)F)nc2c(C(F)(F)F)cccc12 (racemic)	rodent macrophage (RAW) cell line	4.81
CC1CCN(CC(C)(C)NCC(O)c2cc(C(F)(F)F)nc3c(C(F)(F)F)cccc23)CC1 (racemic)	rodent macrophage (RAW) cell line	4.42

Report pIC50 for CCCCNCC(O)c1cc(C(F)(F)F)nc2c(C(F)(F)F)cccc12 (racemic) please. 5.11

Report pIC50 for OC(CNC1CCCCC1)c1cc(C(F)(F)F)nc2c(C(F)(F)F)cccc12 (racemic) please. 4.70

Report pIC50 for CCN(CC)CC(O)c1cc(C(F)(F)F)nc2c(C(F)(F)F)cccc12 (racemic) please. 5.26

Report pIC50 for OC(c1cc(C(F)(F)F)nc2c(C(F)(F)F)cccc12)C1CCCCN1 (centres unmarked) please. 5.14

Report pIC50 for CCC(CC)CNCC(O)c1cc(C(F)(F)F)nc2c(C(F)(F)F)cccc12 (centres unmarked) please. 4.80
